test system: SF-539; experiment: NCI tumour cell line growth inhibition, 48 h
The source made the active and inactive calls. No stated cut-off is given here; in the data, active = GI50 up to about 1.1 µM and inactive = higher.
Bench note: report the call from 1 = active, 0 = inactive

// query So what was the verdict on CC(C)(C)c1ccc(O)c(CN(Cc2cc(C(C)(C)C)ccc2O)C2CCCCC2)c1 in this test?
// result 0

// query Then this compound: COc1ccc2cc(C(C)C(=O)N3CCOC3=O)ccc2c1 (stereo not drawn)
// result 0

###

test system: HL-60; assay: NCI tumour cell line growth inhibition, 48 h
Activity calls are given as the source filed them. Cut-off read from the data, not from the text of the source: active = GI50 up to about 1.1 µM and inactive = higher.
Bench note: report the call from TRUE for active, FALSE for inactive

molecule: Nc1ccn(C2CC3OCC3O2)c(=O)n1 (stereo not given)
answer label: FALSE

molecule: Cc1ccc(S(=O)(=O)OCC(=O)O)cc1
answer label: FALSE

molecule: C=CCCCCC1CCC2CCC(CCCCC=C)N12 (stereo not given)
answer label: FALSE

molecule: CCN(CC)c1ccc2cc(-c3nnc(-c4ccccc4)o3)c(=O)oc2c1
answer label: FALSE

// query So what was the verdict on O=C1O/C(=C\c2ccc(O)cc2)C(c2ccc(O)c(Cl)c2)=C1Br in this test?
// result FALSE

// query Then this molecule: COc1ccc2cc(C(C)C(=O)N3CCOC3=O)ccc2c1 (stereo not given)
// result FALSE

// query Then this molecule: COc1ccc(Nc2nc3ccccc3nc2C(=O)O)cc1OC
// result FALSE

// query Then this molecule: N/N=C1/C(=O)N(c2ccc(Cl)cc2)C(=O)C(=O)C1c1nc2ccccc2s1 (stereo not given)
// result FALSE

// query Then this molecule: COc1ccc(-c2cc(O)c3cc4c(cc3n2)OCO4)c(OC)c1
// result FALSE
